measuredQuantity: melting point

lineNotation	observed
CCCc1nn(-c2ccc(C(F)(F)F)cn2)cc1COc1cccc(CC(=O)O)c1	77 to 78 °C
CCCc1nn(-c2ccc(C(F)(F)F)cn2)cc1CCCCOc1cc(CC(=O)O)ccc1OC	147 to 148 °C
CC(C)c1nn(-c2ccc(C(F)(F)F)cn2)cc1CCCOc1c(C#N)cccc1CC(=O)O	144 to 145 °C
CCc1cccc(CC(=O)O)c1OCCCc1cn(-c2ccc(C(F)(F)F)cn2)nc1C(CC)CC	130 to 131 °C
CCCc1nn(-c2ccc(C(F)(F)F)cn2)cc1CCCOc1ccc(CCC(=O)O)c(OC)c1	114 to 115 °C
CCCCOc1nn(-c2ccc(C(F)(F)F)cn2)cc1CCCOc1ccc(CCC(=O)O)c(OCC)c1	102 to 103 °C
CCCc1nn(-c2ccc(C(F)(F)F)cn2)cc1CCCOc1cccc(C(C)(C)C(=O)O)c1	82 to 83 °C
CCOc1nn(-c2ccc(C(F)(F)F)cn2)cc1CCOc1ccc(CC(=O)O)cc1	142 to 143 °C
CCc1cccc(CC(=O)O)c1OCCCc1cn(-c2ncc(C(F)(F)F)cc2Cl)nc1C(C)C	93 to 95 °C
COc1ccc(OCCCc2cn(-c3ccc(C(F)(F)F)cn3)nc2C(C)C)c(CC(=O)O)c1	143 to 144 °C
CCCc1nn(-c2ccc(C(F)(F)F)cn2)cc1CCCOc1nn(C)cc1CC(=O)O	119 to 120 °C
CCC(CC)c1nn(-c2ccc(Cl)cn2)cc1CCCOc1c(CC(=O)O)cccc1OC	85 to 86 °C
Cc1nn(-c2ccccn2)cc1COc1ccc(CCC(=O)O)cc1	129 to 130 °C
CCCc1nn(-c2ccc(C(F)(F)F)cn2)cc1CCCOc1cc(CC(=O)O)cc(OC)c1	139 to 140 °C
CC(C)c1nn(-c2ccc(C(F)(F)F)cn2)cc1CCCOc1c(Cl)cccc1CC(=O)O	141 to 142 °C
CCC(CC)c1nn(-c2ccc(C(F)(F)F)cn2)cc1CCCOc1c(C)cccc1CC(=O)O	125 to 126 °C
CCOc1cc(OCCCc2cn(-c3ccc(C(F)(F)F)cn3)nc2OC(C)C)ccc1CCC(=O)O	128 to 129 °C
CCOc1nn(-c2cc(C(F)(F)F)ccn2)cc1CCCOc1ccc(CCC(=O)O)cc1OC	111 to 112 °C
COc1cc(OCCCCc2cn(-c3ccc(C(F)(F)F)cn3)nc2C(C)C)ccc1CCC(=O)O	125 to 126 °C
CCOc1nn(-c2ccc(C(F)(F)F)cc2)cc1CCCOc1cc(CCC(=O)O)n(-c2ccccc2)n1	126 to 127 °C
CC(C)c1nn(-c2ccc(C(F)(F)F)cn2)cc1CCCOc1cc(CCC(=O)O)n(C(C)C)n1	130 to 131 °C
O=C(O)c1cccc(OCCCc2cc(-c3ccc(C(F)(F)F)cc3)no2)c1	133 to 134 °C
CCOc1cccc(CC(=O)O)c1OCCCc1cn(-c2ccc(C(F)(F)F)cn2)nc1OCC	114 to 115 °C
O=C(O)CCc1cc(OCCCCc2cc(-c3ccc(C(F)(F)F)cc3)no2)nn1-c1ccccc1	139 to 140 °C
O=C(O)c1cc(OCCCc2cc(-c3ccc(C(F)(F)F)cc3)no2)nn1-c1ccccc1	145 to 146 °C
CCCc1nn(-c2ccc(C(F)(F)F)cn2)cc1CCCCOc1cc(CCC(=O)O)n(-c2ccccc2)n1	123 to 124 °C
CCc1cccc(CC(=O)O)c1OCCCc1cn(-c2ccc(C(F)(F)F)cn2)nc1C(C)C	155 to 156 °C
CCOc1nn(-c2ccc(C(F)(F)F)cc2)cc1CCCOc1ccccc1CC(=O)O	114 to 115 °C
COc1ccc(CCC(=O)O)cc1OCCCc1cn(-c2ccc(C(F)(F)F)cn2)nc1C(C)C	93 to 94 °C
O=C(O)c1ccccc1OCCCc1cc(-c2ccc(C(F)(F)F)cc2)no1	132 to 133 °C
CCOc1nn(-c2ccc(C(F)(F)F)cn2)cc1CCCOc1cc(CCC(=O)O)n(C)n1	137 to 138 °C
CCCc1cn(CC(=O)O)nc1OCCCc1cn(-c2ccc(C(F)(F)F)cn2)nc1CCC	138 to 139 °C
